tested on: Nrf2 (Mus musculus); experiment: Activation of Nrf2 in mouse Hepa1c1c7 cells assessed as increase in NQO1 activity at 5 uM using menadione as substrate incubated for 20 mins followed by substrate addition and measured after 30 mins by spectrophotometry relative to control; settings: filed as activator, time 50.0 min
Listed below: T/C values for each entry.
RECORDED_ENDPOINT: T/C

In [3]: df
Out[3]:
                    structure_smiles_string  recorded_endpoint  measurement
0  CCc1cccc(NC(=O)CSc2nc3c(I)cc(I)cc3c(=O)n2-c2ccc(S(N)(=O)=O)cc2)c1                T/C         1.04
1  NS(=O)(=O)c1ccc(-n2c(SCC(=O)Nc3ccc([N+](=O)[O-])cc3[N+](=O)[O-])nc3c(I)cc(I)cc3c2=O)cc1                T/C         1.08
2  COc1cc(NC(=O)CSc2nc3c(I)cc(I)cc3c(=O)n2-c2ccc(S(N)(=O)=O)cc2)cc(OC)c1OC                T/C         1.24
3  CCc1ccccc1NC(=O)CSc1nc2c(I)cc(I)cc2c(=O)n1-c1ccc(S(N)(=O)=O)cc1                T/C         1.01
4  Cc1cc([N+](=O)[O-])ccc1NC(=O)CSc1nc2c(I)cc(I)cc2c(=O)n1-c1ccc(S(N)(=O)=O)cc1                T/C         1.06
5  CCOc1ccc(NC(=O)CSc2nc3c(I)cc(I)cc3c(=O)n2-c2ccc(S(N)(=O)=O)cc2)cc1                T/C            1
